Target Under Test: human ether-à-go-go-related gene (hERG) potassium channel (human)
Sequence (Q12809 whole entry, looked up): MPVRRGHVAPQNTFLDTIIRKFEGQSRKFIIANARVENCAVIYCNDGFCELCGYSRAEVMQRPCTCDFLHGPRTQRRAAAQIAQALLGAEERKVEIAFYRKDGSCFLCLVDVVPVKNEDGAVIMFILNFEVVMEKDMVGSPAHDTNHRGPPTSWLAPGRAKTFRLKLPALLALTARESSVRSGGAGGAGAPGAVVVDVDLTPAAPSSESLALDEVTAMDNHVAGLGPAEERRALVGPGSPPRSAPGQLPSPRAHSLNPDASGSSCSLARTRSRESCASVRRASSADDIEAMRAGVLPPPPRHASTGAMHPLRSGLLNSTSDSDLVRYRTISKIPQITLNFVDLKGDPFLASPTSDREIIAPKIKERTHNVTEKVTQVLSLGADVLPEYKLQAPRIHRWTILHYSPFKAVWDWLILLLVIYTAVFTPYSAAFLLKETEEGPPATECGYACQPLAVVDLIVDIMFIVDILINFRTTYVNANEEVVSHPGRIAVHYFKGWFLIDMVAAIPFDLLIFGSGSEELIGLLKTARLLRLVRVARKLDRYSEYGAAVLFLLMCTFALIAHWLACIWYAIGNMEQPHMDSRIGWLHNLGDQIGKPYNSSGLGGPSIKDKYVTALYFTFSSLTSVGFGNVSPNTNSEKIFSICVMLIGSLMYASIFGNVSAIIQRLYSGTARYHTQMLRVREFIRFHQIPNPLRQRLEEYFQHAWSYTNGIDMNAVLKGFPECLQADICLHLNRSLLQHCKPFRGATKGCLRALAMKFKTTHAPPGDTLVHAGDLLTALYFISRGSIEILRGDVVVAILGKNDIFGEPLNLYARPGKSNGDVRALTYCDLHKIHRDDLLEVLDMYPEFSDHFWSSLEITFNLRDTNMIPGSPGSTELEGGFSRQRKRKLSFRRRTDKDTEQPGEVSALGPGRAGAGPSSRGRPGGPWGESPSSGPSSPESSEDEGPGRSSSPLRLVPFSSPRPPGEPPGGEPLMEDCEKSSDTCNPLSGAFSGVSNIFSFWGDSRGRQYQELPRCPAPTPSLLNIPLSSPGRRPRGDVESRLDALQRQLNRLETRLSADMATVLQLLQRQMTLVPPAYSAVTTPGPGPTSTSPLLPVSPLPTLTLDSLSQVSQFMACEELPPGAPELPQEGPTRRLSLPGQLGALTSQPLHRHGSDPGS
Assay Details: primary screen, population patch clamp on CHO cells stably expressing hERG; higher = less effect of the substance
Source text: Briefly, Chinese hamster ovary (CHO) cells stably expressing the hERG channel were dislodged from tissue culture flasks and dispensed into PPC plates. […] Small molecule effects on hERG current density were quantified by […].
In all, about 310,000 compounds went through this assay and about 2,200 (0.71%) showed an effect of 50% or more. Effects have a minus sign here. For the sample, strong results were picked, then their nearest neighbours and some compounds at random.
Quantity Name: hERG current change (%, negative = inhibition) at 1uM (%)

1) COc1ccc(CCNCC(O)COc2ccc(Cl)cc2)cc1OC.Cl (centres unmarked) = -56
2) Cc1cc(Cl)ccc1OCC(O)CNCCc1ccc(S(N)(=O)=O)cc1 (centres unmarked) = -58.2
3) CCOC(=O)C1=C(Cn2cnc3ccccc32)NC(=O)NC1c1cc(C)ccc1C (centres unmarked) = 12.2
4) CCCCNC(=O)[C@H]1C[C@H]1[C@@H](O)[C@H](CO)NC(=O)[C@H](Cc1ccccc1)NC(=O)OC(C)(C)C = 11.5
5) Cc1cc(=O)oc2cc(OCC(=O)N3CCCC3)c(Cl)cc12 = 1.63
6) Cc1ccc(C(=O)N/C(=C/c2ccc(-c3ccc([N+](=O)[O-])cc3)o2)C(=O)NCCCN(C)C)cc1 = -78
7) CN(C)CCCNC(=O)/C(=C/c1ccc(-c2ccc([N+](=O)[O-])cc2)o1)NC(=O)c1ccccc1 = -52.5
8) CN(C)C(=O)/C(=C/c1ccc(-c2cccc([N+](=O)[O-])c2)o1)NC(=O)c1ccccc1 = 5.68

###

Target Under Test: human ether-à-go-go-related gene (hERG) potassium channel (human)
Assay Details: primary screen, population patch clamp on CHO cells stably expressing hERG; higher = less effect of the substance
The whole screen tested about 310,000 compounds, of which about 2,200 (0.71%) showed an effect of 50% or more. Effects have a minus sign here. The list comes from a sample in which strong results are over-represented; it also holds close analogues and randomly drawn compounds.
Quantity Name: hERG current change (%, negative = inhibition) at 1uM

1) COCCCNC(=O)CS(=O)(=O)Cc1nc(-c2cccc(OC)c2)oc1C = 11.3%
2) N#CNC(N)=Nc1cccc(Cl)c1 = 16.4%
3) O=C(NCCCn1ccnc1)/C(=C/c1ccc(Cl)cc1)NC(=O)c1ccccc1 = -82.5%
4) CC(=O)Nc1ccc(NC2CCCCC2NS(=O)(=O)c2ccc(Cl)cc2)cc1 (centres unmarked) = 12%
5) CCCCOC(=O)c1nc(Cl)c(Cl)c(N)c1Cl = 12%
6) Nc1ccc(C(=O)NCc2ccccc2)cc1 = 8.94%
7) Cc1nc(SCC(=O)N2CCN(C(=O)c3ccco3)CC2)c2c(C)c(C)sc2n1 = -43.9%
8) CN(C)c1ccc(/C=C(/NC(=O)c2ccccc2)C(=O)NCCCn2ccnc2)cc1 = 16.1%
9) CCN(CC)CCCNC(=O)c1c(O)c2ccccc2n(Cc2ccccc2)c1=O.Cl = -12.3%
10) O=C(NCCCn1ccnc1)/C(=C\c1ccc(Br)cc1)NC(=O)c1ccccc1 = -82.1%
11) O=C(CSc1nn(-c2ccc(Cl)cc2)c(=S)s1)N1CCN(C(=O)c2ccco2)CC1 = -44.1%
12) COc1cccc(-c2nc(CS(=O)(=O)CC(=O)NCCC(C)C)c(C)o2)c1 = 14.4%
13) Cc1ccc(S(=O)(=O)Nc2nc(C)c(C(=O)N/N=C/c3ccccc3)s2)cc1 = 11%
14) Cc1ccc(C(=O)OCC(=O)Nc2ccc(S(N)(=O)=O)cc2)c(O)c1 = 7.79%
15) COc1ccc(N2CCC(CNS(=O)(=O)c3cccc(C(F)(F)F)c3)C2)cc1 (centres unmarked) = 4.38%
16) CCCCCCCOC(=O)c1nc(Cl)c(Cl)c(N)c1Cl = 0.504%
17) Cc1ccc(S(=O)(=O)N2CCOC2CNC(=O)C(=O)NCCCc2ccccc2)cc1 (centres unmarked) = 5.36%
18) Cc1ccc(Cn2cnc3ccccc32)cc1 = 13%
19) CC(C)CC(=O)OCC(=O)Nc1ccccc1Sc1ccccc1 = 11.1%
20) COc1ccc(/C=C(/NC(=O)c2ccccc2)C(=O)NCCCn2ccnc2)cc1OC = 15.3%

###

Target Under Test: human ether-à-go-go-related gene (hERG) potassium channel (human)
Assay Details: primary screen, population patch clamp on CHO cells stably expressing hERG; higher = less effect of the substance
Out of some 310,000 compounds screened, about 2,200 (0.71%) showed an effect of 50% or more. Effects have a minus sign here. The list comes from a sample in which strong results are over-represented; it also holds close analogues and randomly drawn compounds.
Assign class 1 whenever hERG current change (%, negative = inhibition) at 1uM does not fall below -20%; assign class 0 whenever it does.

1) CCCCC(c1nnnn1C1CCCC1)N1CCN(C2CCCCC2)CC1 (stereo not shown) = class 0
2) COc1ccc2[nH]c(C(=O)O)c(CCNC(=O)/C=C/c3ccc(O)c(OC)c3)c2c1 = class 1
3) CCCC(c1nnnn1C1CCCCC1)N1CCN(C2CCCC2)CC1.Cl (stereo not shown) = class 1
4) COc1ccc(OC)c(NC(=O)COC(=O)C2CCN(C(=O)c3ccc(Cl)cc3)CC2)c1 = class 0
5) O=C(CN1C(=O)NC2(CCCC2)C1=O)Nc1ccc(Cl)c(C(F)(F)F)c1 = class 1
6) c1ccc(CC(Nc2ccccn2)c2ccccc2)cc1 (stereo not shown) = class 1
7) Cc1ccc2nc(SC(C)C(=O)NC3CCCc4ccccc43)[nH]c2c1 (stereo not shown) = class 1
8) CCCC(c1nnnn1C(C)(C)CC)N1CCN(C2CCCC2)CC1.Cl (stereo not shown) = class 1
9) CCCCC(c1nnnn1C1CCCC1)N1CCN(C2CCCC2)CC1.Cl (stereo not shown) = class 0
10) CC(=O)Nc1cccc(C(=O)OCC(=O)NC(C)c2ccc(F)cc2)c1 (stereo not shown) = class 1

###

This section presents compounds with their documented hERG current change (%, negative = inhibition) at 1uM values.
Target Under Test: human ether-à-go-go-related gene (hERG) potassium channel (human)
Assay Details: primary screen, population patch clamp on CHO cells stably expressing hERG; higher = less effect of the substance
Description: Briefly, Chinese hamster ovary (CHO) cells stably expressing the hERG channel were dislodged from tissue culture flasks and dispensed into PPC plates. […] Small molecule effects on hERG current density were quantified by […].
Among all 310,000 compounds or so, about 2,200 (0.71%) showed an effect of 50% or more. Effects have a minus sign here. This excerpt belongs to a sample that is enriched for strong results.
Quantity Name: hERG current change (%, negative = inhibition) at 1uM (%)

1. COc1cc(NC(=O)CN(C)C2CCCCC2)c(C)cc1[N+](=O)[O-] = 6.09
2. C[C@@H](C(=O)Nc1ccc2ccccc2c1)[C@H]1C[C@]1(C)[C@H](NS(=O)(=O)c1ccc(-c2ccccc2)cc1)c1ccccc1 = -8.41
3. CCOC(=O)c1c(C2CC2)csc1NC(=O)CSCc1c(C)noc1C = 11.4
4. CN(C)CCSCc1nnc2n1-c1ccc(Cl)cc1C(c1ccccc1Cl)=NC2.c1ccccc1 = -51.9
5. CCOCCN1CCN(c2nnc3n2-c2ccc(Cl)cc2C(c2ccccc2Cl)=NC3)CC1.O=CO = -57.6
6. CCC(=O)O[C@]1(C(=O)CCl)[C@@H](C)C[C@H]2[C@@H]3CCC4=CC(=O)C=C[C@]4(C)[C@@]3(F)[C@@H](O)C[C@@]21C = 18
7. CCc1ccccc1NC(=O)Nc1c(C)n(C)n(-c2ccccc2)c1=O = -14.2
8. COc1ccccc1/C=C/C(=O)Nc1cccc(S(=O)(=O)NC2=NCCCCC2)c1 = 13.1
9. Cn1ccnc1SCC(=O)Nc1cc(C(F)(F)F)ccc1N1CCOCC1 = -0.591
10. CSCc1nnc2n1-c1ccc(Cl)cc1C(c1ccccc1)=NC2 = 4.89
11. CCOc1cc(N2CCOCC2)c(OCC)cc1NC(=O)Cn1nc(C)c([N+](=O)[O-])c1C = 6.15
12. CN1CCN(Cc2nnc3n2-c2ccc(Cl)cc2C(c2ccccc2)=NC3)CC1.O=CO = -31.9
13. Clc1ccc2c(c1)C(c1ccccc1Cl)=NCc1nnc(N3CCN(CCOc4ccccc4)CC3)n1-2.O=C(O)/C=C/C(=O)O = -50.8
14. O=C(COC(=O)c1cccs1)Nc1ccccc1Cl = 14.6
15. COc1ccccc1C1=NCc2nnc(CSC)n2-c2ccc(Cl)cc21 = 0.0726
16. CC(/C=N/NC(=O)c1cc(-c2ccncc2)nc2ccccc12)=C\c1ccco1 = 0.477
17. CN(C)S(=O)(=O)c1ccc2nnn(O)c2c1 = 7.89
18. Cc1cc(C)c2[nH]c3nc(SCC(=O)O)nnc3c2c1 = 16.7
